molecular target: SARS-CoV-2 Receptor Binding Domain (RBD) protein (SARS-CoV-2, UniProt P0DTC2 319-541); experiment: SPR, scFv captured by anti-V5, RBD analyte
ENDPOINT LABEL: koff (s⁻¹)
Entry rule: numbers only, all in s⁻¹.

See these solved cases before continuing.
INSERT INTO results (binder, endpoint_label, measurement_unit, observed_measurement) VALUES
  ('COVID19_P06_G02 (scFv, V domains shown) VH: QVQLVQSGAEVKKPGASVKVSCKASGYTFTSHDINWVRQAPGQGLEWMGMINPSGGYTSYAQNFQGRVTMTRDTSTSTVYMELSSLRSEDTAVYYCTREGIPALLRTLDYWGQGTLVTVSS VL: DIQMTQSPSSLSASVGDRVTITCRASQGIRNDLGWYQQKPGKAPKLLIYAASSLQSGVPSRFSGSGSGTDFTLTISSLQPEDFATYYCQQTYTTPYTFGGGTKVEIKR', 'koff', 's⁻¹', 0.0009),
  ('COVID19_P06_G11 (scFv, V domains shown) VH: QVQLVQSGAEVKKPGASVKVSCKASGNTFTGYYMHWVRQAPGQGLEWMGAIYPGGSDTSYNQKFQGRVTMTRDTSTSTVYMELSSLRSEDTAVYYCTREGIPQLAWTLDYWGQGTLVTVSS VL: DIQMTQSPSSLSASVGDRVTITCRASQSMSSYLNWYQQKPGKAPKLLIYAASSLQSGVPSRFSGSGSGTEFTLTISSLQPEDIATYYCQQFGSFGGGTKVEIKR', 'koff', 's⁻¹', 0.0014);

As a next step, examine the binder that follows.
### Prompt Return reported koff. Input binder: COVID19_R02_A12 (scFv, V domains shown) VH: QVQLVQSGAEVKKPGASVKVSCKASGYTFTENEMHWVRQAPGQGLEWMGIINTSGGYTNYAQKFQGRVTMTRDTSTSTVYMELSSLRSEDTAVYYCTREGIPQLLRTLDYWGQGTLVTVSS VL: DIQMTQSPSSLSASVGDRVTITCRASQSISSWLAWYQQKPGKAPKLLIYAASSLQSGVPSRFSGSGSGTDFTLTISSLQPEDFATYYCQQSYSNPYTFGGGTKVEIKR
### Response 0.0102
